From: patent US11059832B2

Items are presented alongside their recorded IC50.
# TESTED_TARGET: LCK (Homo sapiens, UniProt P06239)
# Sequence (P06239 whole entry, species assumed): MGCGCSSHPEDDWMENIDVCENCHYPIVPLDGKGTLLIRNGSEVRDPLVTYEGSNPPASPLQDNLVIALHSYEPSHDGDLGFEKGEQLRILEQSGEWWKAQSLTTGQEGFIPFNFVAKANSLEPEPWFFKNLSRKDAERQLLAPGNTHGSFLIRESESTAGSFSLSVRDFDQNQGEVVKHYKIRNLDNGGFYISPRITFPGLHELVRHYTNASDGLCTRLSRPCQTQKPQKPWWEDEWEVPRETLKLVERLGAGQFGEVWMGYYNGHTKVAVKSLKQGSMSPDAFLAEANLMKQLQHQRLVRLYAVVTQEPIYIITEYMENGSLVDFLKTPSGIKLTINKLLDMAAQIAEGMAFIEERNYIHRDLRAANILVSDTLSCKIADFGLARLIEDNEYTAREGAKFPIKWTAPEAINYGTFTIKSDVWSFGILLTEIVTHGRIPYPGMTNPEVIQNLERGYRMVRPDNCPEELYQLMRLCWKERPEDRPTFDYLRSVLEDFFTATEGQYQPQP

COMPOUND | TESTED_TARGET | IC50
Nc1c(-c2nc3ccc(N4CCNCC4)cc3[nH]2)c(=O)[nH]c2sccc12 | LCK (Homo sapiens, UniProt P06239) | 50 to 500 nM
CN1CCN(c2ccc3nc(-c4c(NC5CCN(C=O)CC5)c5ccsc5[nH]c4=O)[nH]c3c2)CC1 | LCK (Homo sapiens, UniProt P06239) | ≤ 50 nM
CN1CCN(c2ccc3nc(-c4c(NC5CCCC5)c5sccc5[nH]c4=O)[nH]c3c2)CC1 | LCK (Homo sapiens, UniProt P06239) | ≤ 50 nM
CN1CCN(c2ccc3nc(-c4c(N[C@H]5CC[C@@H](O)CC5)c5sccc5[nH]c4=O)[nH]c3c2)CC1 | LCK (Homo sapiens, UniProt P06239) | ≤ 50 nM
Nc1c(-c2nc3ccc(N4CCOCC4)cc3[nH]2)c(=O)[nH]c2ccsc12 | LCK (Homo sapiens, UniProt P06239) | 50 to 500 nM
CN1CCN(c2ccc3nc(-c4c(N[C@@H]5CC[C@H](O)C5)c5sccc5[nH]c4=O)[nH]c3c2)CC1 (relative stereo) | LCK (Homo sapiens, UniProt P06239) | ≤ 50 nM
CN1CCN(c2ccc3nc(-c4c(N)c5sccc5[nH]c4=O)[nH]c3c2)CC1 | LCK (Homo sapiens, UniProt P06239) | ≤ 50 nM
CN1CCN(c2ccc3nc(-c4c(O)c5sccc5[nH]c4=O)[nH]c3c2)CC1 | LCK (Homo sapiens, UniProt P06239) | 50 to 500 nM
CN1CCN(c2cc3[nH]c(-c4c(N)c5sccc5[nH]c4=O)nc3cc2F)CC1 | LCK (Homo sapiens, UniProt P06239) | ≤ 50 nM
CN1CCN(c2ccc3nc(-c4c(N[C@@H]5CCNC[C@H]5F)c5ccsc5[nH]c4=O)[nH]c3c2)CC1 | LCK (Homo sapiens, UniProt P06239) | ≤ 50 nM

Req: # get_value(readout= IC50, system= LCK (Homo sapiens, UniProt P06239)) for `CN1CCN(c2ccc3nc(-c4c(N[C@H]5CCC[C@@H]5O)c5sccc5[nH]c4=O)[nH]c3c2)CC1`
Resp: ≤ 50 nM

Req: Same question, `COc1csc2[nH]c(=O)c(-c3nc4ccc(N5CCN(C)CC5)cc4[nH]3)c(N)c12` this time
Resp: > 500 nM

Req: Same question, `CN1CCN(c2ccc3nc(-c4c(NC5CCC5)c5cscc5[nH]c4=O)[nH]c3c2)CC1` this time
Resp: ≤ 50 nM

Req: Same question, `CN1CCN(c2ccc3nc(-c4c(N[C@H]5CCNC[C@@H]5F)c5ccsc5[nH]c4=O)[nH]c3c2)CC1` this time
Resp: 50 to 500 nM

Req: Same question, `CN1CCN(c2ccc3nc(-c4c(N)c5c(N6CCNCC6)csc5[nH]c4=O)[nH]c3c2)CC1` this time
Resp: > 500 nM

Req: Same question, `CN1CCN(c2ccc3nc(-c4c(NC5CCOCC5)c5ccsc5[nH]c4=O)[nH]c3c2)CC1` this time
Resp: 50 to 500 nM

Req: Same question, `CN1CCC(Nc2c(-c3nc4ccc(N5CCOCC5)cc4[nH]3)c(=O)[nH]c3sccc23)CC1` this time
Resp: 50 to 500 nM

Req: Same question, `CN1CCN(c2ccc3nc(-c4c(N)c5ccsc5[nH]c4=O)[nH]c3c2)CC1` this time
Resp: 50 to 500 nM

----------
Items are presented alongside their recorded IC50.
# TESTED_TARGET: LCK (Homo sapiens)

Consider the reported IC50 for these compounds:
COMPOUND | IC50
CN1CCN(c2ccc3nc(-c4c(N[C@@H]5CCOC5)c5cscc5[nH]c4=O)[nH]c3c2)CC1 [Example A71] | ≤ 50 nM
CN1CCN(c2ccc3nc(-c4c(NC5CCNCC5(F)F)c5ccsc5[nH]c4=O)[nH]c3c2)CC1 (stereo not shown) [Example A15] | ≤ 50 nM
CN1CCN(C(=O)c2ccc3[nH]c(-c4c(N)c5ccsc5[nH]c4=O)nc3c2)CC1 [Example A60] | 50 to 500 nM

Req: For CN1CCN(c2ccc3nc(-c4c(NC5CCOCC5)c5sccc5[nH]c4=O)[nH]c3c2)CC1 [Example A35] , what is its reported IC50?
Resp: ≤ 50 nM

Req: Same question, C[C@@H]1CN(c2ccc3nc(-c4c(NC5CCOCC5)c5sccc5[nH]c4=O)[nH]c3c2)C[C@H](C)N1C [Example A48] this time
Resp: ≤ 50 nM

Req: Same question, CN1CCN(c2ccc3nc(-c4c(N[C@@H]5CCCC[C@@H]5O)c5sccc5[nH]c4=O)[nH]c3c2)CC1 [Example A46] this time
Resp: 50 to 500 nM

Req: Same question, CN1CCN(c2ccc3nc(-c4c(NCc5cccnc5)c5sccc5[nH]c4=O)[nH]c3c2)CC1 [Example A52] this time
Resp: ≤ 50 nM
